# credit: patent US20220274927A1

# Tested on: methicillin-resistant S. aureus (FPR3757)
# PROTOCOL DETAILS: MIC against clinical MRSA strain FPR3757 in Mueller-Hinton broth (CLSI)
# Format: cell-based, Staphylococcus aureus
# RUN PARAMETERS: MRSA clinical strain FPR3757, Mueller-Hinton broth, CLSI guidelines, complete inhibition of observable growth
Some compounds, each annotated with its measured MIC.
METRIC NAME: MIC

SMILES INPUT	MEASURED
N#Cc1cccc(Nc2cc(C(F)(F)F)nc3cc(C(F)(F)F)ccc23)c1	>32 µg/mL
FC(F)(F)c1ccc2c(Nc3ccc4c(c3)OCO4)cc(C(F)(F)F)nc2c1	>4 µg/mL
FC(F)(F)c1ccc2c(Nc3nccs3)cc(C(F)(F)F)nc2c1	1 to 2 µg/mL
O=c1cc(C(F)(F)F)[nH]c2cc(F)cc(Nc3ccc(C(F)(F)F)cn3)c12	<0.06 µg/mL

====

# System: methicillin-resistant S. aureus (FPR3757)
# PROTOCOL DETAILS: MIC against clinical MRSA strain FPR3757 in Mueller-Hinton broth (CLSI)
# Type: cell-based, Staphylococcus aureus
# RUN PARAMETERS: MRSA clinical strain FPR3757, Mueller-Hinton broth, CLSI guidelines, complete inhibition of observable growth
Each entry below lists one item and its recorded MIC value.
METRIC NAME: MIC

SMILES INPUT	METRIC NAME	MEASURED
Fc1ccc(Nc2cc(C(F)(F)F)nc3cc(C(F)(F)F)ccc23)cc1F	MIC	0.12 to 0.25 µg/mL
FC(F)(F)c1ccc(Nc2cc(N3CCNCC3)nc3cc(C(F)(F)F)ccc23)nc1	MIC	0.5 to 1 µg/mL
CSc1cccc(Nc2cc(C(F)(F)F)nc3cc(C(F)(F)F)ccc23)c1	MIC	0.25 to 0.5 µg/mL

====

# Tested on: methicillin-resistant S. aureus (FPR3757)
# PROTOCOL DETAILS: MIC against clinical MRSA strain FPR3757 in Mueller-Hinton broth (CLSI)
# Assay type: cell-based, Staphylococcus aureus
# RUN PARAMETERS: Staphylococcus aureus, MRSA, MRSA clinical strain FPR3757, Mueller-Hinton broth, CLSI guidelines, complete inhibition of observable growth; read-out: MIC
Listed next: entries and their corresponding MIC.

COMPOUND	SYSTEM	MIC
Fc1ccc(Nc2cc(C(F)(F)F)nc3cc(C(F)(F)F)ccc23)cc1F	methicillin-resistant S. aureus (FPR3757)	0.125 to 0.25 µg/mL
O=c1cc(C(F)(F)F)[nH]c2cc(C(F)(F)F)cc(Nc3ccc(F)cn3)c12	methicillin-resistant S. aureus (FPR3757)	0.12 µg/mL
FC(F)(F)c1ccc2c(Nc3cccc4[nH]ncc34)cc(C(F)(F)F)nc2c1	methicillin-resistant S. aureus (FPR3757)	> 32 µg/mL
COc1ccc2c(Nc3ccc(C(F)(F)F)cn3)cc(C(F)(F)F)nc2c1	methicillin-resistant S. aureus (FPR3757)	32 µg/mL
O=c1cc(C(F)(F)F)[nH]c2cc(C(F)(F)F)ccc12	methicillin-resistant S. aureus (FPR3757)	4 to 8 µg/mL
FC(F)(F)c1ccc2c(Nc3cccc(Cl)c3)cc(C(F)(F)F)nc2c1	methicillin-resistant S. aureus (FPR3757)	0.125 to 0.25 µg/mL
O=c1cc(C(F)(F)F)[nH]c2cc(C(F)(F)F)cc(N3CCOCC3)c12	methicillin-resistant S. aureus (FPR3757)	> 32 µg/mL
CCc1ccc2c(=O)cc(C(F)(F)F)[nH]c2c1	methicillin-resistant S. aureus (FPR3757)	320 to 640 µg/mL
OC1CCCN(c2cc(C(F)(F)F)nc3cc(C(F)(F)F)ccc23)C1 (stereo not shown)	methicillin-resistant S. aureus (FPR3757)	> 32 µg/mL
FC(F)(F)c1ccc2c(Nc3cccc(Br)c3)cc(C(F)(F)F)nc2c1	methicillin-resistant S. aureus (FPR3757)	0.25 µg/mL
